Assay: Multicenter, open-label, Phase 1a/b study of HC-7366 in subjects with advanced solid tumors (safety, PK)
Format: in vivo
Settings: human, plasma, po, 125 mg, human, single oral dose 125 mg (N = 6), Cycle 1 Day 1, geometric mean
observation_type: half-life (h)
Give bare numbers, in h.

Lookup: # half-life lookup, item "CNC(=O)c1ncn2cc(-c3c(F)ccc(NS(=O)(=O)c4cc(Cl)cnc4OC)c3F)ncc12"
Found: 14

----------
Experiment: Multicenter, open-label, Phase 1a/b study of HC-7366 in subjects with advanced solid tumors (safety, PK)
Assay type: in vivo
Settings: human, plasma, po, 75 mg, human, single oral dose 75 mg (N = 10), Cycle 1 Day 1, median
From the text: […]
observation_type: Tmax (h)
Numbers only, in h.

Lookup: # Tmax lookup, item "CNC(=O)c1ncn2cc(-c3c(F)ccc(NS(=O)(=O)c4cc(Cl)cnc4OC)c3F)ncc12"
Found: 2

----------
Experiment: Multicenter, open-label, Phase 1a/b study of HC-7366 in subjects with advanced solid tumors (safety, PK)
Format: in vivo
Details: human, plasma, po, 75 mg, human, multiple once daily oral 75 mg (N = 7), Cycle 1 Day 21, median
observation_type: Tmax
Answer format: value, then unit.

Lookup: # Tmax lookup, item CNC(=O)c1ncn2cc(-c3c(F)ccc(NS(=O)(=O)c4cc(Cl)cnc4OC)c3F)ncc12 [HC-7366]
Found: 2 h

----------
Test: Multicenter, open-label, Phase 1a/b study of HC-7366 in subjects with advanced solid tumors (safety, PK)
Assay type: in vivo
Conditions: human, plasma, po, 20 mg, human, single oral dose 20 mg (N = 3), Cycle 1 Day 1, geometric mean; read-out: Vz/F
observation_type: Vd/F

Lookup: # Vd/F lookup, item CNC(=O)c1ncn2cc(-c3c(F)ccc(NS(=O)(=O)c4cc(Cl)cnc4OC)c3F)ncc12 [HC-7366]
Found: 7.84 L

----------
Assay: Multicenter, open-label, Phase 1a/b study of HC-7366 in subjects with advanced solid tumors (safety, PK)
Type: in vivo
Conditions: human, plasma, po, 75 mg, human, multiple once daily oral 75 mg (N = 7), Cycle 1 Day 21, geometric mean
observation_type: half-life (h)
Give bare numbers, in h.

Lookup: # half-life lookup, item "CNC(=O)c1ncn2cc(-c3c(F)ccc(NS(=O)(=O)c4cc(Cl)cnc4OC)c3F)ncc12"
Found: 17.8

----------
Assay: Multicenter, open-label, Phase 1a/b study of HC-7366 in subjects with advanced solid tumors (safety, PK)
Format: in vivo
Settings: human, plasma, po, 75 mg, human, single oral dose 75 mg (N = 10), Cycle 1 Day 1, geometric mean
observation_type: Cmax (µg/mL)
Numbers only, in µg/mL.

Lookup: # Cmax lookup, item "CNC(=O)c1ncn2cc(-c3c(F)ccc(NS(=O)(=O)c4cc(Cl)cnc4OC)c3F)ncc12"
Found: 10.2

----------
Experiment: Pharmacokinetic study of HC-7366 via oral (PO) administration of different formulations in beagle dogs
Assay type: in vivo
Conditions: dog, plasma, 7.5 mg/kg; PO 7.5 mpk, male beagle dogs
Experimental: 10 mL of 0.001 N HCl was used to wash the gavage catheter for each animal.
observation_type: Tmax (h)
One number for each entry, in h.

Lookup: # Tmax lookup, item CNC(=O)c1ncn2cc(-c3c(F)ccc(NS(=O)(=O)c4cc(Cl)cnc4OC)c3F)ncc12 [HC-7366-K]
Found: 4
